Tested on: HCT-15 colon
experiment: NCI-60 one-dose screen, 48 h (100 = growth as untreated, 0 = no growth, -100 = all killed)
applied.conditions: 10 µM unless noted
This is part of a sample that, as a whole, favours compounds with a hit. Of some 83,000 tested, about 20% had one in any assay.
Criterion: growth strictly less than 80%. Met: fulfilled. Not met: not fulfilled.

chemical.string: COc1ccc(NC(=O)/C=C(C)/C=C/C=C(C)/C=C/C2=C(C)CCCC2(C)C)cc1
group: fulfilled

chemical.string: C/C=C/C/C=C/[C@H](C)C[C@H](O)[C@@H]1C[C@@H]2O[C@H]2/C=C/[C@H](O)[C@@H](O)/C=C/C[C@H](C)CC(=O)O1
group: fulfilled

chemical.string: CCCOC(=O)c1c(C)n(C)c2scc[n+]12
group: not fulfilled

chemical.string: COc1nc(OC)nc(-c2cc(-c3cc(OC)c(OC)c(OC)c3)no2)n1
group: not fulfilled

###

System: A549/ATCC NSCLC
experiment: NCI-60 one-dose screen, 48 h (100 = growth as untreated, 0 = no growth, -100 = all killed)
applied.conditions: 10 µM unless noted
The panel holds about 83,000 compounds, 20% with a hit somewhere; the sample as a whole holds those more often.

compound: Cc1c(Cc2ccccc2)c(=O)oc2c(C)c(OCC(=O)n3nc(C#N)cc3N)ccc12
growth (%): 106
--
compound: CC(CCN1CCN(CCC(C)CC(C)(C)C)C1CC(C)CC(C)(C)C)CC(C)(C)C (stereo not drawn)
growth (%): 96.2
--
compound: Cc1ccc(NCc2cn(-c3ccc(C(=O)O)cc3)nc2-c2ccc(C(=O)O)cc2)cc1
growth (%): 94.9
--
compound: CC[N+](C)(C)N
growth (%): 105
--
compound: O=C1/C(=N\c2cc(=O)[nH]n2S(=O)(=O)c2ccccc2)Nc2ccccc21
growth (%): 111
--
compound: Cc1ccc([C@@H]2C[C@H](O)Cc3ccccc3N2)s1
growth (%): 104
--
compound: COC(=O)c1ccc2[nH]c(O)c(C(=Nc3ccc(N(C)C(=O)CN4CCN(C)CC4)cc3)c3ccc(OC)cc3)c2c1
growth (%): 16
--
compound: CC(=O)N1N=C(c2ccc(Cl)cc2)CC1c1cn(-c2ccccc2)nc1-c1ccc([N+](=O)[O-])cc1 (stereo not drawn)
growth (%): 108
--
compound: CCN(CCO)CCNc1ccc(C)c2sc3cc(OC)ccc3c(=O)c12
growth (%): 59.4
--
compound: COC(=O)c1ccc2[nH]c(O)c(C(=Nc3ccc(N(C)C(=O)CN4CCN(C)CC4)cc3)c3ccc(C)cc3)c2c1
growth (%): -30.2
--
compound: CC(=O)Nc1nc(C)c(C(=O)NN)s1
growth (%): 101
--
compound: CCOC(=O)c1csc(-c2ccc(COC(=O)c3ccccc3)o2)n1
growth (%): 99.7
--
compound: O=C(Nc1cccc(Cn2c(=O)[nH]c3ccc(Oc4ncccn4)cc3c2=O)c1)c1cc(Cl)cc(Cl)c1
growth (%): 56
--
compound: CC(=O)c1ccc2c(c1)c1ccccc1n2C
growth (%): 96.9
--
compound: CC(=O)O.[In]
growth (%): 99.6
--
compound: CC1C(=O)CCCC1=O
growth (%): 102
--
compound: COc1nc(OC)nc(-c2cc(C(=O)c3ccc(Br)cc3)n3cc(C)cc(C)c23)n1
growth (%): 51.3
--
compound: CC(=O)/C(=C/c1ccc(-c2ccccc2)cc1)C(=O)c1ccccc1
growth (%): 76.4
--
compound: CCCNC(=O)Oc1ccc(/C(=C(/C)Cc2ccc(OC)cc2)c2ccc(OCCN3CCCCC3)cc2)cc1
growth (%): 84.4
--
compound: CCCCCSc1ccc2nc(NC(=O)OCCC)sc2c1
growth (%): 46.4
--
compound: COc1ccc(C2=NN(C(=O)c3cc(-c4ccc(C)cc4)nc4ccccc34)C(c3cc(-c4ccccc4)nn3-c3ccccc3)C2)cc1 (stereo not drawn)
growth (%): 89.1
--
compound: Cc1c([C@H](C(Cl)Cl)[C@H](O)[C@H]2C[C@H](C)C(=O)O2)ccc2c1C(=O)[C@H]1[C@H]2C[C@@H](Br)[C@@]23O[C@@H](CO[C@H]2O)CC13C (stereo partly drawn)
growth (%): -1.06
--
compound: Cc1ccc(C(=O)Nc2ccc(CN3CCN(C)CC3)c(C(F)(F)F)c2)cc1C#Cc1cnc(N)c2ccc(F)cc12
growth (%): -87.5

###

System: NCI-H322M lung
experiment: NCI-60 one-dose screen, 48 h (100 = growth as untreated, 0 = no growth, -100 = all killed)
applied.conditions: 10 µM unless noted
This is part of a sample that, as a whole, favours compounds with a hit. Of some 83,000 tested, about 20% had one in any assay. Calls of active or inactive are those of the source. Rule for the calls: active = growth percent below 10; inactive = the rest.
value.kind: growth

compound: COc1ccc(-c2nc(SCC(C)C)nc(Nc3ccc(C(=O)O)cc3)c2C#N)cc1
assayed.system: NCI-H322M lung
value.kind: growth
recorded.value: 96.9% (inactive)
--
compound: O=c1c2c(c3ccccc3n1-c1ccccc1)NC(=S)NC2c1ccc(Cl)cc1 (stereo not given)
assayed.system: NCI-H322M lung
value.kind: growth
recorded.value: 45.1% (inactive)
--
compound: O=Nc1c(-c2c(O)[nH]c3cc(Br)ccc23)[nH]c2ccccc12
assayed.system: NCI-H322M lung
value.kind: growth
recorded.value: 16.6% (inactive)
--
compound: COC(=O)c1cc(Nc2ccc(O)c3c2C(=O)c2c([N+](=O)[O-])ccc(O)c2C3=O)cc(C(=O)OC)c1
assayed.system: NCI-H322M lung
value.kind: growth
recorded.value: -2.32% (active)
--
compound: CCCCCCCCCCC1OC(C)CC(C)O1 (stereo not given)
assayed.system: NCI-H322M lung
value.kind: growth
recorded.value: 102% (inactive)
--
compound: O=c1c(N=Nc2nccs2)c(-c2ccccc2)[nH]n1-c1nc(-c2ccccc2)cs1
assayed.system: NCI-H322M lung
value.kind: growth
recorded.value: 24.5% (inactive)
--
compound: O=C(/C=C1\C(=O)N(Cc2ccc([N+](=O)[O-])cc2)c2ccccc21)c1ccc(OCCN2CCCCC2)cc1
assayed.system: NCI-H322M lung
value.kind: growth
recorded.value: 49.2% (inactive)
--
compound: CCn1cnc(C[C@H](NC(=O)[C@@H](NC(=O)Nc2cc(C(F)(F)F)cc(C(F)(F)F)c2)C(C)(C)C)C(=O)OC)c1
assayed.system: NCI-H322M lung
value.kind: growth
recorded.value: -96.3% [100 µM] (active)
--
compound: COC(=O)c1ccc2[nH]c(O)c(C(=Nc3ccc(N(C)C(=O)CN4CCN(C)CC4)cc3)c3ccc4c(c3)OCO4)c2c1
assayed.system: NCI-H322M lung
value.kind: growth
recorded.value: 21% (inactive)
--
compound: CCOc1ccc(/C=N/NC(=O)c2cccc3ccccc23)cc1OCC
assayed.system: NCI-H322M lung
value.kind: growth
recorded.value: 119% (inactive)

###

Tested on: SF-539 CNS
experiment: NCI-60 one-dose screen, 48 h
applied.conditions: 10 µM unless noted
This is part of a sample that, as a whole, favours compounds with a hit. Of some 83,000 tested, about 20% had one in any assay. Active and inactive are the calls of the source. How the source made its calls: active means growth percent below 10; inactive means the rest.
Outcomes: active, inactive

compound: Cc1ccc(S(=O)(=O)NC(CCC(=O)Nc2ccccc2)C(=O)Nc2ccccc2)cc1 (centres undefined)
group: active

compound: CC1=C[C@@H]2c3c(c(O)c(O)c4oc5cc(O)cc(O)c5c(=O)c34)[C@@H](c3cc(O)c(O)c4oc5cc(O)cc(O)c5c(=O)c34)[C@@H]2C(C)(C)C1
group: active

compound: Clc1ccc(N/N=C/c2ccccn2)nc1
group: active

compound: COc1ccc(/C=C2\CCCC3=C2N=C2SC=NN2C3c2ccc(OC)c(OC)c2)cc1OC (centres undefined)
group: inactive

###

Below, each of the compounds is paired with its reported growth value.
Tested on: HCT-116 colon
experiment: NCI-60 one-dose screen, 48 h (100 = growth as untreated, 0 = no growth, -100 = all killed)
applied.conditions: 10 µM unless noted
Compounds without any hit were thinned out: in the full panel of roughly 83,000, 20% have a hit.

compound: C=C1CCC2C3(C)COC(c4ccccc4)OC3CCC2(C)C1C/C=C1/C(=O)OCC1O (stereo not drawn)
unit.of.measure: %
growth: 38.6
//
compound: CCC(CCCN1C(=O)c2ccccc2C1=O)Nc1cc(OC)cc2cccnc12 (stereo not drawn)
unit.of.measure: %
growth: 105
//
compound: Cc1ccc(S(=O)(=O)N/N=C2\CC3CCC2C3)cc1 (stereo not drawn)
unit.of.measure: %
growth: 103
//
compound: CN1C(=O)C(=Cc2coc3ccc(Br)cc3c2=O)C(=O)N(C)C1=O
unit.of.measure: %
growth: 95.2
//
compound: O=c1c2c(c3ccccc3n1-c1ccccc1)NC(=S)NC2c1ccc(Cl)cc1 (stereo not drawn)
unit.of.measure: %
growth: 16.1
//
compound: CCOC(=O)C1=C(C(F)(F)F)NC(=O)NC1CN1C(=O)c2ccccc2C1=O (stereo not drawn)
unit.of.measure: %
growth: 112
//
compound: N#Cc1c(N)nc(Nc2nc3ccccc3[nH]2)nc1-c1ccc(Cl)cc1
unit.of.measure: %
growth: 109
//
compound: COc1ccc(Cn2cc3c(c2-c2ccc(O)cc2)CCc2cnoc2-3)cc1
unit.of.measure: %
growth: 11.1
//
compound: CCC1(CC)C(OC)NC(Br)=C(C#N)C1(C#N)C(N)=O (stereo not drawn)
unit.of.measure: %
growth: 110
//
compound: Brc1ccc(-c2nc3ccccc3s2)cc1
unit.of.measure: %
growth: 89.4
//
compound: CC(=O)/C(=C/c1ccc(-c2ccccc2)cc1)C(=O)c1ccccc1
unit.of.measure: %
growth: 57.6
//
compound: Cc1nc(N)sc1C(=O)NCCO
unit.of.measure: %
growth: 99.6
//
compound: CCCC(C)c1cc(Cc2cc(Cl)cc(Cl)c2O)c(O)c(Cc2cc(Cl)cc(Cl)c2O)c1 (stereo not drawn)
unit.of.measure: %
growth: 4.58
//
compound: CCCCCCCCCCCC(=O)OC(C)C(=O)Nc1ccccc1 (stereo not drawn)
unit.of.measure: %
growth: 96.5
//
compound: CCCCCCN(CCCCCC)CCC(=O)Nc1ccc(S(=O)(=O)c2ccc(NC(=O)CCN(CCCCCC)CCCCCC)cc2)cc1
unit.of.measure: %
growth: 61.2
//
compound: O=Nc1c(-c2c(O)[nH]c3cc(Br)ccc23)[nH]c2ccccc12
unit.of.measure: %
growth: -67.3
//
compound: C=C(C)[C@@H]1CC[C@]2(COC(=O)c3ccccc3C(=O)O)CC[C@]3(C)[C@H](CC[C@@H]4[C@@]5(C)CCCNC(C)(C)[C@@H]5CC[C@]43C)[C@@H]12
unit.of.measure: %
growth: 32.2
//
compound: Cc1ccc(NCc2cn(-c3ccc(C(=O)O)cc3)nc2-c2ccc(C(=O)O)cc2)cc1
unit.of.measure: %
growth: 100
//
compound: Cc1c(C(N)=O)sc2c1c(=O)n(Cc1ccccc1)c1nnc(S(C)(=O)=O)n21
unit.of.measure: %
growth: 79.6
//
compound: O=c1oc2ccc3ccccc3c2cc1-c1ccnc2[nH]c(=S)[nH]c(=O)c12
unit.of.measure: %
growth: 93.9
//
compound: C/C(=C\c1ccc2ccccc2c1)[N+](=O)[O-]
unit.of.measure: %
growth: -40.7
//
compound: Cc1ccnc2c(NC(C)CCCN)cc(O)c(O)c12 (stereo not drawn)
unit.of.measure: %
growth: 99.7
//
compound: CCCCCCCCC/C(=N\NC(=O)c1ccncc1)c1ccc(O)c(O)c1O
unit.of.measure: %
growth: 26.7
